# Test system: Enterococcus faecalis
# protocol: Antimicrobial activity against Enterococcus faecalis ATCC 29212 assessed as reduction of bacterial growth incubated for 18 hrs by CLSI protocol based broth microdilution method
# Type: functional
Where a SMILES comes first, the peptide text is derived from it. Bridges are numbered along the chain shown (N, C = ends). [ ]: non-standard residue; d: D form. The star is where a group is joined. X1 = CC[C@H](C)CCCCC(=O)*; Dab = NCC[C@H](N)C(=O)O
Documented MIC across a set of compounds
State just the number; it will be interpreted in µM.

[
  {
    "compound": "CC[C@H](C)CCCCC(=O)N[C@@H](CCN)C(=O)N[C@H](C(=O)N[C@@H](CCN)C(=O)N[C@H]1CCNC(=O)[C@H]([C@@H](C)O)NC(=O)[C@H](CCN)NC(=O)[C@H](CCN)NC(=O)[C@H](CC(C)C)NC(=O)[C@@H](Cc2ccccc2)NC(=O)[C@H](CCN)NC1=O)[C@@H](C)O (X1-[Dab]T[Dab][Dab][Dab][dF]L[Dab][Dab]T; lactam 4-C)",
    "MIC / µM": 128
  },
  {
    "compound": "C[C@@H](O)[C@H]1C(=O)N2C(C(=O)O)=C(S[C@@H]3CN[C@H](C(=O)N(C)C)C3)[C@H](C)[C@H]12",
    "MIC / µM": 16
  }
]

// next entry
# returns recorded MIC (system: Enterococcus faecalis) for `NC[C@H]1O[C@H](O[C@H]2[C@H](O)[C@@H](O[C@H]3O[C@H](CO)[C@@H](O)[C@H](N)[C@H]3O)[C@H](N)C[C@@H]2N)[C@H](O)[C@@H](O)[C@@H]1O` 16

----------
Documented log10(CC50 at 1 h) across a set of substances
# protocol: Cytotoxicity against human HK-2 cells assessed as reduction in cell viability incubated for 1 hr by resazurin based microplate reader method
# Assay type: toxicity
Values below are the log10 of the recorded CC50 at 1 h, with µM as the unit.

Sample answers from the record:
[
  {
    "substance": "H-FRFRFRRRRFRFRFRF-NH2",
    "log10(CC50 at 1 h)": 1.01
  },
  {
    "substance": "H-WKWKWKRRRFKWKWKW-NH2",
    "log10(CC50 at 1 h)": 1.02
  },
  {
    "substance": "H-WRWRRRRFRWRW-NH2",
    "log10(CC50 at 1 h)": 0.94
  },
  {
    "substance": "H-IRIRIRRRRFRIRIRI-NH2",
    "log10(CC50 at 1 h)": 1.09
  },
  {
    "substance": "H-IRIRRRRFRIRI-NH2",
    "log10(CC50 at 1 h)": 2.11
  },
  {
    "substance": "H-WKWKRRRFKWKW-NH2",
    "log10(CC50 at 1 h)": 2.08
  }
]

For the substance `H-RIRIRRRRFRIRIR-NH2` , what log10(CC50 at 1 h) is on record? 1.81

For the substance `H-FRFRRRRFRFRF-NH2` , what log10(CC50 at 1 h) is on record? 1.62

----------
# Test system: Bacillus subtilis
# protocol: Antimicrobial activity against Bacillus subtilis ATCC 23857 assessed as reduction of bacterial growth incubated for 18 hrs by CLSI protocol based broth microdilution method
# Assay type: functional
Documented MIC across a set of compounds

Sample answers from the record:
[
  {
    "compound": "CO[C@H]1/C=C/O[C@@]2(C)Oc3c(C)c(O)c4c(O)c(c(/C=N/N5CCN(C)CC5)c(O)c4c3C2=O)NC(=O)/C(C)=C\\C=C\\[C@H](C)[C@H](O)[C@@H](C)[C@@H](O)[C@@H](C)[C@H](OC(C)=O)[C@@H]1C [RIFAMPIN]",
    "MIC": "< 1 µM"
  },
  {
    "compound": "NC[C@H]1O[C@H](O[C@H]2[C@H](O)[C@@H](O[C@H]3O[C@H](CO)[C@@H](O)[C@H](N)[C@H]3O)[C@H](N)C[C@@H]2N)[C@H](O)[C@@H](O)[C@@H]1O [KANAMYCIN]",
    "MIC": "< 1 µM"
  }
]

// next entry
For the compound C[C@@H](O)[C@H]1C(=O)N2C(C(=O)O)=C(S[C@@H]3CN[C@H](C(=O)N(C)C)C3)[C@H](C)[C@H]12 [MEROPENEM] , what MIC is on record? < 1 µM
